The compounds listed here are annotated with their %Inh.
tested on: CDK9; conditions: concentration: 1 μM, replicates: in singlicate; n = 1;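 further: KINOMEscan kinase panel screen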

# compound, test_target, %Inh, %
records = [
    ("Nc1ncc(-c2ccc3nccc(-c4ccncc4)c3c2)cc1S(=O)(=O)N1CCOCC1", "CDK9", 0),
    ("CN(C)S(=O)(=O)c1cc(-c2ccc3nccc(-c4cccc(S(N)(=O)=O)c4)c3c2)cnc1N", "CDK9", 0),
    ("COc1cccc(-c2ccc3c(NC(=O)C4CC4)n[nH]c3n2)c1", "CDK9", 0),
    ("Cl.Cl.NCC(NC(=O)c1cc(-c2ccccc2)c(-c2ccnc3[nH]ccc23)s1)c1ccccc1 (stereo not drawn)", "CDK9", 0),
    ("O=C(Nc1ccccc1F)NC1CCN(c2ccnc(Nc3ccc(F)cc3)n2)CC1", "CDK9", 0),
    ("CCn1c(-c2nonc2N)nc2c(C#CC(C)(C)O)ncc(OCCCCN)c21.O=C(O)C(F)(F)F.O=C(O)C(F)(F)F", "CDK9", 0),
    ("CC(=O)Nc1nc2cnc(Nc3cc(NC(=O)c4cccc(C5(C#N)CC5)c4Cl)ccc3C)nc2s1", "CDK9", 0),
    ("C[C@@H]1CC[C@@H](C(=O)Nc2ccccc2)CN1c1cc(-c2ccc3c(N)n[nH]c3c2)nc(N)n1", "CDK9", 4),
    ("COc1cc(Nc2nccc(N3CCC(NC(=O)Nc4cccc(C(C)=O)c4)C3)n2)cc(OC)c1OC (stereo not drawn)", "CDK9", 0),
    ("COc1cccc(C2=C(Nc3ccc(Cl)c(C(=O)O)c3)C(=O)NC2=O)c1", "CDK9", 0),
    ("CCCCc1nn2ncccc2c1-c1ccnc(Nc2ccc(N3CCN(C)CC3)cc2)n1", "CDK9", 0),
    ("CNC(=O)c1ccccc1Nc1nc(Nc2ccc(N3CCOCC3)cc2)ncc1Cl.Cl", "CDK9", 27),
    ("Nc1n[nH]c2cnc(-c3ccccc3)cc12", "CDK9", 53),
    ("COc1ccc(Nc2nccc(N3CCC(NC(=O)Nc4cccc(OC)c4)C3)n2)cc1 (stereo not drawn)", "CDK9", 0),
    ("O=C(Nc1cccc(Oc2ccc3nc(NC(=O)C4CC4)cn3n2)c1)c1ccccc1C(F)(F)F", "CDK9", 0),
    ("COc1cccc(C(=O)Nc2cccc(Oc3ccc4nc(NC(=O)C5CC5)cn4n3)c2)c1", "CDK9", 0),
    ("O=C(Nc1cccc(-c2nn3ccccc3c2-c2ccnc(Nc3cccc(C(F)(F)F)c3)n2)c1)c1c(F)cccc1F", "CDK9", 0),
    ("Cn1cc(-c2ccc3c(c2)CCN3C(=O)Cc2cccc(Cl)c2)c2c(N)ncnc21", "CDK9", 0),
    ("CSc1cccc2c(-c3ccncn3)c(-c3ccc(F)cc3)nn12", "CDK9", 0),
    ("Cl.c1ccc(-c2ccc3c(Nc4ccc5[nH]ncc5c4)ccnc3c2)nc1", "CDK9", 11),
    ("c1ccc(-c2cnc3nccnn23)cc1", "CDK9", 0),
    ("Fc1ccc(-c2ncn(C3CCNCC3)c2-c2ccnc(Oc3ccc(-c4ccccc4)cc3)n2)cc1", "CDK9", 12),
    ("COc1ccc(CNC(=O)NC2CCN(c3ccnc(Nc4ccc(F)cc4)n3)CC2)cc1", "CDK9", 0),
    ("CN(C)Cc1ccc(-c2ccc3c(Nc4ccc(Oc5ccccn5)cc4)ccnc3c2)o1", "CDK9", 0),
]
